Measured pKi by item
Target: Muscarinic acetylcholine receptor M2 (Rattus norvegicus, UniProt P10980)
Sequence (P10980 whole entry): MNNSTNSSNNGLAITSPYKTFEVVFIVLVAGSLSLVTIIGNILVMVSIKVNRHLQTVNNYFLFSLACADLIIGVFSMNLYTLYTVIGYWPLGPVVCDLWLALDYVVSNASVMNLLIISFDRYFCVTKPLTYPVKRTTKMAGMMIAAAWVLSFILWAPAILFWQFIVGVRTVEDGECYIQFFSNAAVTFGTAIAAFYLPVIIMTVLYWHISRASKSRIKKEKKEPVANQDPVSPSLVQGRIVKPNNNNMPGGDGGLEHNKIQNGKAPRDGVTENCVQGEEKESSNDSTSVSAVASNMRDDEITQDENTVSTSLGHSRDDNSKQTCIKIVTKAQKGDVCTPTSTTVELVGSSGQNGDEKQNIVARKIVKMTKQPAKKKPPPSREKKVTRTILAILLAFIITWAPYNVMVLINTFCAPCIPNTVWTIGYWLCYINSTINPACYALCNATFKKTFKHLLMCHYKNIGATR
pKi: −log10 of the molar value.
value-kind: pKi

>>> result("CN1CCC=C(c2nsnc2SCCF)C1")
8.74
>>> result("CCCSc1nsnc1C1=CCN(C)CC1")
8.82
>>> result("CN1CCC=C(c2nsnc2SCCCCCF)C1")
8.20
>>> result("CN1CCC=C(c2nsnc2SCCCF)C1")
8.66
>>> result("CCCCCSc1nsnc1C1=CCN(C)CC1")
8.40
